B1: SMARCE1 (parent)
chain: YHNSPAYLAYINAKSRAEAALEEE

- Variants of: B1
- experiment: protein stability index of a GFP-peptide fusion (GPS, HEK-293T) (PSI 1-6); higher = more stable;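 further: lentivirally expressed fusions sorted by FACS into six bins by GFP to DsRed ratio, PSI derived from sequencing read proportions per bin multiplied by bin number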
- stated conditions: c terminus: a fixed tail appended
measured endpoint: protein stability index
Answer with a number only.

Solved entries:
- variant label: "L21H"
  protein stability index: 2.77
- variant label: "N3R"
  protein stability index: 2.26

Task item: // returns reported protein stability index for input `S4W`
Reply: 2.41
